- test.target: T1, polo-box domain (PBD) of polo-like kinase 1 (PLK1) (UniProt P53350 367-603, limits assumed)
- T1 construct: domain: polo-box domain (PBD); the background speaks of the four known human PLKs and the residue numbers (L491) fit human PLK1; also called PLK1 PBD; PBD of PLK1
- T1 sequence (P53350 367-603 limits assumed): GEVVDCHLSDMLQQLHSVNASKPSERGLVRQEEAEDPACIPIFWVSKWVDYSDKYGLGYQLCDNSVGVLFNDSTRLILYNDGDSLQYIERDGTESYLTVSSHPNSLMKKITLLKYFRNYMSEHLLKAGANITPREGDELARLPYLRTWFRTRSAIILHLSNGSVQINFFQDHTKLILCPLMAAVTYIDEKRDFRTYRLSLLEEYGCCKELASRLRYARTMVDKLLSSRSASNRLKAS
- experiment.notes: fluorescence polarization competition, displacement of tracer peptide from PLK1 PBD
- Excerpt: According to the assay, binding of a fluorescent tracer peptide to a protein increased polarization of the emitted fluorescence. […] The ability of test molecules to bind to the PBD was quantitated by a reduction in mP values that occurred as the tracer was displaced from the PBD, and plotted to calculate as an IC₅₀ value.
Square brackets hold non-standard residues; d marks the D form. Ends that are not written are not given here. pT = C[C@@H](OP(=O)(O)O)[C@H](N)C(=O)O
Here the recorded IC50 is given for each entry.
parameter: IC50 (µM)

>>> obs_value("{4‑ethoxybenzoyl}-S[pT]PNGL (also: further groups not given here, see m14; also called Compound No. 3) [Compound #3 FLIP (R1 = OCH2CH3)]")
15.9
>>> obs_value("{4‑phenethoxybenzoyl}-S[pT]PNGL (also: further groups not given here, see m14; also called Compound No. 6) [Compound #6, 4-phenethoxy FLIP (R1 = OCH2CH2C6H5)]")
4.5
>>> obs_value("{4‑(propylamino)benzoyl}-S[pT]PNGL (also: further groups not given here, see m14; also called Compound No. 9) [Compound #9, propylamino FLIP (R1 = NCH2CH2CH3)]")
5.4
>>> obs_value("{4‑(methylamino)benzoyl}-S[pT]PNGL (also: further groups not given here, see m14; also called Compound No. 8) [Compound #8, methylamino FLIP (R1 = NCH3)]")
11.2
>>> obs_value("{4‑methoxybenzoyl}-S[pT]PNGL (also: further groups not given here, see m14; also called Compound No. 2) [Compound #2, methoxy derivative FLIP (R1 = OCH3)]")
21.9
>>> obs_value("{4‑(methylthio)benzoyl}-S[pT]PNGL (also: further groups not given here, see m14; also called Compound No. 7) [Compound #7, thiomethyl FLIP (R1 = SCH3)]")
3
